Values were extracted from patent US20190309059A1.

biological target: his-labeled human IL-13 (immunogen A) (human) (UniProt P35225); assay: cell-based or functional assay
measure.name: Periostin (pg/mL), MRCS cells + IL-13 5 ng/mL; antibody at 0.11 nM
Respond with a number, then the unit of measure.

[
  {
    "binder": "c70F10A10 (mouse-human chimeric IL-13 antibody) (antibody, V domains shown) VH: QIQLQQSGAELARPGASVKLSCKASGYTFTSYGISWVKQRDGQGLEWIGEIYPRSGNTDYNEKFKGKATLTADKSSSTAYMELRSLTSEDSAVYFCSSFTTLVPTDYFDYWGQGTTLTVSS VL: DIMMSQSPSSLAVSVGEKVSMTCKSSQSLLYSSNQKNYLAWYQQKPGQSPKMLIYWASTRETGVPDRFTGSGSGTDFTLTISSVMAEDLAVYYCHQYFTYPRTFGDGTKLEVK",
    "reported.value": "4570 pg/mL"
  },
  {
    "binder": "c29D9H8 (mouse-human chimeric IL-13 antibody) (antibody, V domains shown) VH: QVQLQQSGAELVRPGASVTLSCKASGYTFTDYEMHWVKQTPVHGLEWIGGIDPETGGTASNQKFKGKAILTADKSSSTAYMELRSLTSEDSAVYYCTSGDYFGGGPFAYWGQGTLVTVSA VL: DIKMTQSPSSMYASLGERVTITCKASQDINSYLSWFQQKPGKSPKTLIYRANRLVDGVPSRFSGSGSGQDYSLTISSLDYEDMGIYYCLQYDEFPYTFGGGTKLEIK",
    "reported.value": "3220 pg/mL"
  }
]

Switching to the query record.
Lab note: measured Periostin (pg/mL), MRCS cells + IL-13 5 ng/mL; antibody at 0.11 nM of c35E2C3 (mouse-human chimeric IL-13 antibody) (antibody, V domains shown) VH: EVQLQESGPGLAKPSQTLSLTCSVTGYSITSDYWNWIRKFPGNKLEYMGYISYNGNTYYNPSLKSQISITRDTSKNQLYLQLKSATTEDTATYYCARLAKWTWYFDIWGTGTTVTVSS VL: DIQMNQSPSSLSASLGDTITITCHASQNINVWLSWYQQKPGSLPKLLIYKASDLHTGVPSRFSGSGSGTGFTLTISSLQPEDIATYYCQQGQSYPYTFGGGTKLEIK was 4360 pg/mL
